System: BDF1 mice, P388 leukemia ip, median survival T/C
test-method-notes: NCI In Vivo Anticancer Drug Screen. Data for tumor model P388 Leukemia (intraperitoneal) in B6D2F1 (BDF1) mice
condition-context: endpoint: median survival time; dose: 25.0 mg/kg/injection; schedule: Q01DX009 (ip); vehicle: saline with Tween-80; higher = longer survival
Inconclusive results and toxic doses are left out.
measurement-kind: T/C

Prompt line: Name the recorded T/C for COc1cc(/C=C/[N+](=O)[O-])c(OC)cc1Br .
Response line: 153 % of control

Prompt line: Another: CC1CC2C(CC1O)C2(C)C (configuration not stated)
Response line: 95 % of control

Prompt line: Another: CCCNC(=O)/C=C\S(=O)CCC (configuration not stated)
Response line: 100 % of control

Prompt line: Another: COC(=O)/C=C1\C(C(=O)OC)=Cc2ccccc2N1C
Response line: 100 % of control

Prompt line: Another: COC(=O)c1ccc(OP(=O)(N(C)C)N(C)C)cc1
Response line: 115 % of control

Prompt line: Another: CCN1CCCC(Nc2nc(Nc3cc(Cl)cc(Cl)c3)nc3ccc(Cl)cc23)C1 (configuration not stated)
Response line: 109 % of control

Prompt line: Another: COc1ccc(NC(=S)Nc2ccccn2)cc1
Response line: 100 % of control

----------
System: BDF1 mice, P388 leukemia ip, median survival T/C
test-method-notes: NCI In Vivo Anticancer Drug Screen. Data for tumor model P388 Leukemia (intraperitoneal) in B6D2F1 (BDF1) mice
condition-context: endpoint: median survival time; dose: 200.0 mg/kg/injection; schedule: Q01DX001 (ip); vehicle: Klucel (hydroxypropylcellulose) (HPC); higher = longer survival
Inconclusive results and toxic doses are left out.
Hi there, I'd appreciate the recorded T/C for every entry that follows.

Prompt line: Name the recorded T/C for NC(=S)N/N=C/c1ccccc1N .
Response line: 104 % of control

Prompt line: Another: CCOc1nsc(OCC)n1
Response line: 104 % of control

Prompt line: Another: O.O.O=C(CC(=O)C(F)(F)F)C(F)(F)F.O=C(CC(=O)C(F)(F)F)C(F)(F)F.[Ni]
Response line: 104 % of control

Prompt line: Another: O=C(c1ccccc1)C1CC1c1ccccc1 (centres undefined)
Response line: 104 % of control

Prompt line: Another: CCCCCCCCCCCCCCCC(=O)N1CCC(N2CCCCC2)CC1
Response line: 109 % of control

Prompt line: Another: O=[N+]([O-])c1cccc(/C=C/c2ccccc2)c1
Response line: 95 % of control

Prompt line: Another: O=[N+]([O-])c1ccc(N=Cc2ccc3c(c2)OCO3)cc1
Response line: 95 % of control

Prompt line: Another: OC(CCCCC(O)(c1ccccc1)c1ccccc1)(c1ccccc1)c1ccccc1
Response line: 115 % of control

Prompt line: Another: CCN1C(=O)c2ccccc2C1=O
Response line: 108 % of control

Prompt line: Another: Nc1nc(N)c(-c2ccccc2)c(C(=O)O)n1
Response line: 118 % of control

Prompt line: Another: Sc1ccc2ccccc2c1
Response line: 95 % of control

Prompt line: Another: CCOc1ccc(N2C(=O)CC(Sc3ccccc3N)C2=O)cc1 (centres undefined)
Response line: 100 % of control

Prompt line: Another: CN(C)C(=S)SSC(=S)N(C)C
Response line: 109 % of control

Prompt line: Another: COc1ccc(C=NCCN=Cc2ccc(OC)cc2)cc1
Response line: 100 % of control

----------
Tested on: BDF1 mice, P388 leukemia ip, median survival T/C
test-method-notes: NCI In Vivo Anticancer Drug Screen. Data for tumor model P388 Leukemia (intraperitoneal) in B6D2F1 (BDF1) mice
condition-context: endpoint: median survival time; dose: 100.0 mg/kg/injection; schedule: Q04DX003 (ip); vehicle: saline with Tween-80
Procedure: The antitumor activity of compounds was measured in mice bearing transplantable tumors. Survival or tumor size were measured and the results are expressed as the measurement made in the treated group (T) divided by the measurement made in the vehicle treated control group (C). The tumor model used in this assay is P388 Leukemia (intraperitoneal) in B6D2F1 (BDF1) mice
Toxic doses and inconclusive results are not listed. Rule for the calls: active = survival T/C of 150% or more; inactive = T/C below 125% in these data.
Outcomes you can answer with include only these: active, inactive

Prompt line: Which outcome was entered for the molecule CS(=O)c1ccccc1C(=O)O (configuration not stated) in this test?
Response line: inactive

Prompt line: Another: CC(=O)c1ccc2c(c1)[nH]c1ccccc12
Response line: inactive

Prompt line: Another: O=[N+]([O-])OCc1c(Cl)nc(Cl)c(Cl)c1Cl
Response line: inactive

Prompt line: Another: Cc1ccc(C)c(CCCC(=O)O)c1
Response line: inactive

Prompt line: Another: ON=C(CSCc1ccccc1)CSCc1ccccc1
Response line: inactive

Prompt line: Another: O=C1c2ccccc2CCCC1N1CCOCC1 (configuration not stated)
Response line: inactive

Prompt line: Another: CC1CCC2C(C1)N(C(C)C)OC2(C)C (configuration not stated)
Response line: inactive

Prompt line: Another: c1ccc2c(c1)Cc1c(NC3=NCCO3)cccc1-2
Response line: inactive

Prompt line: Another: COC(OC)c1[nH]c(=S)[nH]c(=O)c1Cc1c(Cl)cccc1Cl
Response line: inactive

Prompt line: Another: CC1CCCC/C1=N/NC(=O)c1ccccc1 (configuration not stated)
Response line: inactive

Prompt line: Another: O=C(CSc1ncnc2nc[nH]c12)c1ccccc1
Response line: inactive

Prompt line: Another: NC(=S)N1N=C(c2cccc([N+](=O)[O-])c2)CCC1=O
Response line: inactive

Prompt line: Another: COc1cc2cc[n+](C)c(Cc3ccccc3)c2cc1OC
Response line: inactive

Prompt line: Another: O=C(CBr)N1CCC2(CC1)SSC1(CCN(C(=O)CBr)CC1)S2
Response line: inactive

Prompt line: Another: CCN(CCP(c1ccccc1)c1ccccc1)CCP(c1ccccc1)c1ccccc1
Response line: active

Prompt line: Another: C#CC(C)(C)OCC(CCl)OC(N)=O (configuration not stated)
Response line: inactive

Prompt line: Another: COc1ccc(OC)c(C(C)(O)CC(=O)O)c1 (configuration not stated)
Response line: inactive

Prompt line: Another: N#Cc1cnc2nc1NCCCCCCC2
Response line: inactive

Prompt line: Another: Ic1ncnc2nc[nH]c12
Response line: inactive

Prompt line: Another: O=NN(CCCl)C(=O)Nc1ccc(I)cc1
Response line: active

Prompt line: Another: Cc1ccc(C(=O)/C=C\c2ccccc2)cc1
Response line: inactive

Prompt line: Another: CCCCSCc1nc2nc(Cl)c(Cl)nc2[nH]1
Response line: inactive

Prompt line: Another: COc1ccc(C(=O)C(C)C=O)c(OCc2ccccc2)c1OC (configuration not stated)
Response line: inactive

Prompt line: Another: O=C(Nc1ccc(C(=O)O)cc1)Oc1ccc(N(CCCl)CCCl)cc1
Response line: active

Prompt line: Another: CCOC(=O)N1Cc2cc3cc(OC)c(OC)cc3nc2C1
Response line: inactive

Prompt line: Another: O=Cc1ccc(OC(=O)Nc2ccccc2)cc1
Response line: inactive

Prompt line: Another: CC1CCCCC12OCCO2 (configuration not stated)
Response line: inactive

----------
Hi there, I'd appreciate the recorded T/C for every entry that follows.
Tested on: BDF1 mice, P388 leukemia ip, median survival T/C
test-method-notes: NCI In Vivo Anticancer Drug Screen. Data for tumor model P388 Leukemia (intraperitoneal) in B6D2F1 (BDF1) mice
condition-context: endpoint: median survival time; dose: 25.0 mg/kg/injection; schedule: Q01DX001 (ip); vehicle: saline with Tween-80; higher = longer survival
Inconclusive results and toxic doses are left out.

Prompt line: Name the recorded T/C for CC(=O)O/C(C#N)=C1\CCCC\C1=C(\C#N)OC(C)=O .
Response line: 103 % of control

Prompt line: Another: N#CC(/C=C/c1ccccc1)Nc1ccccc1C(N)=O (stereo not given)
Response line: 109 % of control

Prompt line: Another: COCc1ccc([N+](=O)[O-])cc1
Response line: 101 % of control

Prompt line: Another: CCN(CC)P(Cl)(C1=C(Cl)C(=O)C(C#N)=C(C#N)C1=O)(N(CC)CC)N(CC)CC
Response line: 97 % of control

Prompt line: Another: Cc1sc(C)c2c1C[Se]Cc1c(C)sc(C)c1C[Se]C2
Response line: 107 % of control

----------
System: BDF1 mice, P388 leukemia ip, median survival T/C
test-method-notes: NCI In Vivo Anticancer Drug Screen. Data for tumor model P388 Leukemia (intraperitoneal) in B6D2F1 (BDF1) mice
condition-context: endpoint: median survival time; dose: 1.56 mg/kg/injection; schedule: Q01DX009 (ip); vehicle: saline with Tween-80; higher = longer survival
Toxic doses and inconclusive results are not listed.
measurement-kind: T/C

Prompt line: Name the recorded T/C for CCOC(=O)C(=CNc1ccccc1OC)C(=O)OCC .
Response line: 112 % of control

Prompt line: Another: CC(C)CCc1cc(O)c(CCC(C)C)cc1O
Response line: 102 % of control

Prompt line: Another: CC1CC[N-]CC1.CC1CC[N-]CC1.[Br][Pt+2]([Br])([Br])[Br]
Response line: 100 % of control

Prompt line: Another: O=C1C=CC(=O)c2c(O)cccc21
Response line: 90 % of control

Origin of the recorded values: PubChem BioAssay AID328
